# credit: patent EP4678644A1

target.system: PDE4B2 (Homo sapiens)
Construct: expressed in transfected cells; host or cells: Flp-In-293 (Flpin-293-PDE4B2 [sic])
Sequence (Q07343 1-564 isoform Q07343-2): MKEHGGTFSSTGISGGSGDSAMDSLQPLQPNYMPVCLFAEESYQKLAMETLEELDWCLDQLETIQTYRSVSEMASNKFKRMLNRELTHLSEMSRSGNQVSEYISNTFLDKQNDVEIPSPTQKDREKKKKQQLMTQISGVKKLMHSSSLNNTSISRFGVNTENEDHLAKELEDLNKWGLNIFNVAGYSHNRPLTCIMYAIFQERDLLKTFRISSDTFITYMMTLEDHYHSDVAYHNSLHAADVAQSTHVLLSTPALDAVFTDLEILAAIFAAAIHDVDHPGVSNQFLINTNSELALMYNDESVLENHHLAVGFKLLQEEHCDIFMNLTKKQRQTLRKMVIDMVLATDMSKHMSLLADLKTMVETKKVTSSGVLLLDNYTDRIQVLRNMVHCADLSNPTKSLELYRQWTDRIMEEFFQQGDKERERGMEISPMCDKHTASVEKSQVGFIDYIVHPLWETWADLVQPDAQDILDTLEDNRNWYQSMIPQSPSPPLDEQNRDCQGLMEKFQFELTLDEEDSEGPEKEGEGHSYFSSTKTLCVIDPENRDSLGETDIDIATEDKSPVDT
assay.explanation: PDE4B2 cell experiment (cAMP, Eu-cAMP tracer / Ulight-anti-cAMP)
Type: cell-based
measurement.setup: Flpin-293-PDE4B2 cells, 100 nM
Tick yes if Cell Inhibition% @100 nM is 90% or greater. Tick no if Cell Inhibition% @100 nM is less than 90%.

INSERT INTO results (compound, target_system, class_label) VALUES
  ('[O-][S+]1CCc2nc(N3CC[C@@H]4c5cccc(Cl)c5OC[C@H]4C3)nc(NC3(CO)CCC3)c21 (stereo partly drawn)', 'PDE4B2 (Homo sapiens)', 'yes'),
  ('[O-][S+]1CCc2nc(N3CC[C@@H]4c5ccc(Br)cc5OC[C@H]4C3)nc(NC3(CO)CCC3)c21 (stereo partly drawn)', 'PDE4B2 (Homo sapiens)', 'yes'),
  ('[O-][S+]1CCc2nc(N3CC[C@@H]4c5cc(Cl)ccc5OC[C@H]4C3)nc(NC3(CO)CCC3)c21 (stereo partly drawn)', 'PDE4B2 (Homo sapiens)', 'yes'),
  ('[O-][S+]1CCc2nc(N3CC[C@@H]4c5ccc(C(F)(F)F)cc5OC[C@H]4C3)nc(NC3(CO)CCC3)c21 (stereo partly drawn)', 'PDE4B2 (Homo sapiens)', 'no'),
  ('[O-][S+]1CCc2nc(N3CCc4ccc(Cl)cc4C3)nc(NC3(CO)CCC3)c21 (stereo not drawn)', 'PDE4B2 (Homo sapiens)', 'no'),
  ('Cn1nc2c(c1Cl)CN(c1nc3c(c(NC4(CO)CCC4)n1)[S+]([O-])CC3)CC2 (stereo not drawn)', 'PDE4B2 (Homo sapiens)', 'no'),
  ('COc1nc2c(c3ccc(Cl)cc13)CCN(c1nc3c(c(NC4(CO)CCC4)n1)[S+]([O-])CC3)C2 (stereo not drawn)', 'PDE4B2 (Homo sapiens)', 'yes'),
  ('O=C(O)Cc1ccc(Nc2nc(N3CCc4cc(Cl)ccc4C3)nc3c2[S@@+]([O-])CC3)cc1', 'PDE4B2 (Homo sapiens)', 'no'),
  ('[O-][S+]1CCc2nc(N3CCc4cc(-n5ccnc5)ccc4C3)nc(NC3(CO)CCC3)c21 (stereo not drawn)', 'PDE4B2 (Homo sapiens)', 'yes'),
  ('[O-][S+]1CCc2nc(N3CCc4ccsc4C3)nc(NC3(CO)CCC3)c21 (stereo not drawn)', 'PDE4B2 (Homo sapiens)', 'no'),
  ('[O-][S+]1CCc2nc(N3CCc4c(c(NCCO)nc5cc(Cl)ccc45)C3)nc(NC3(CO)CCC3)c21 (stereo not drawn)', 'PDE4B2 (Homo sapiens)', 'yes'),
  ('[O-][S+]1CCc2nc(N3CCc4cc(I)ccc4C3)nc(NC3(CO)CCC3)c21 (stereo not drawn)', 'PDE4B2 (Homo sapiens)', 'yes'),
  ('[O-][S+]1CCc2nc(N3Cc4ccc(C(F)(F)F)cc4C3)nc(NC3(CO)CCC3)c21 (stereo not drawn)', 'PDE4B2 (Homo sapiens)', 'no'),
  ('Nc1nc2cc(Cl)ccc2c2c1CN(c1nc3c(c(NC4(CO)CCC4)n1)[S+]([O-])CC3)CC2 (stereo not drawn)', 'PDE4B2 (Homo sapiens)', 'yes'),
  ('COc1ccc2sc3c(c2c1)CCN(c1nc2c(c(NC4(CO)CCC4)n1)[S+]([O-])CC2)C3 (stereo not drawn)', 'PDE4B2 (Homo sapiens)', 'yes'),
  ('[O-][S+]1CCc2nc(N3CCc4cc(F)c(F)cc4C3)nc(NC3(CO)CCC3)c21 (stereo not drawn)', 'PDE4B2 (Homo sapiens)', 'no'),
  ('[O-][n+]1cc2c(c3ccc(Cl)cc31)CCN(c1nc3c(c(NC4(CO)CCC4)n1)[S+]([O-])CC3)C2 (stereo not drawn)', 'PDE4B2 (Homo sapiens)', 'no'),
  ('[O-][S+]1CCc2nc(N3CC[C@@H]4c5ccc(F)cc5OC[C@H]4C3)nc(NC3(CO)CCC3)c21 (stereo partly drawn)', 'PDE4B2 (Homo sapiens)', 'yes'),
  ('Cn1cnc(-c2ccc3c(c2)CCN(c2nc4c(c(NC5(CO)CCC5)n2)[S+]([O-])CC4)C3)n1 (stereo not drawn)', 'PDE4B2 (Homo sapiens)', 'yes'),
  ('[O-][S+]1CCc2nc(N3CCc4cc(-c5ncco5)ccc4C3)nc(NC3(CO)CCC3)c21 (stereo not drawn)', 'PDE4B2 (Homo sapiens)', 'yes'),
  ('[O-][S+]1CCc2nc(N3CCc4cc(Cl)ncc4C3)nc(NC3(CO)CCC3)c21 (stereo not drawn)', 'PDE4B2 (Homo sapiens)', 'no'),
  ('[O-][S+]1CCc2nc(N3CCc4ccc(Cl)cc4CC3)nc(NC3(CO)CCC3)c21 (stereo not drawn)', 'PDE4B2 (Homo sapiens)', 'no'),
  ('[O-][S+]1CCc2nc(N3CCc4c(ncc5cc(Cl)ccc45)C3)nc(NC3(CO)CCC3)c21 (stereo not drawn)', 'PDE4B2 (Homo sapiens)', 'yes'),
  ('[O-][S+]1CCc2nc(N3CCc4cccc(Cl)c4C3)nc(NC3(CO)CCC3)c21 (stereo not drawn)', 'PDE4B2 (Homo sapiens)', 'no'),
  ('Cn1nc(Cl)c2c3c(cnc21)CN(c1nc2c(c(NC4(CO)CCC4)n1)[S+]([O-])CC2)CC3 (stereo not drawn)', 'PDE4B2 (Homo sapiens)', 'yes'),
  ('CS(=O)(=O)c1ccc2c(c1)CCN(c1nc3c(c(NC4(CO)CCC4)n1)[S+]([O-])CC3)C2 (stereo not drawn)', 'PDE4B2 (Homo sapiens)', 'yes'),
  ('[O-][S+]1CCc2nc(N3CC[C@@H]4c5ccccc5OC[C@H]4C3)nc(NC3(CO)CCC3)c21 (stereo partly drawn)', 'PDE4B2 (Homo sapiens)', 'yes'),
  ('[O-][S+]1CCc2nc(N3CCc4cc(N5CC(F)(F)C5)ccc4C3)nc(NC3(CO)CCC3)c21 (stereo not drawn)', 'PDE4B2 (Homo sapiens)', 'yes'),
  ('[O-][S+]1CCc2nc(N3CC[C@H]4c5cnc(Cl)cc5OC[C@@H]4C3)nc(NC3(CO)CCC3)c21 (stereo partly drawn)', 'PDE4B2 (Homo sapiens)', 'no'),
  ('[O-][S+]1CCc2nc(N3Cc4ccc(Br)cc4C3)nc(NC3(CO)CCC3)c21 (stereo not drawn)', 'PDE4B2 (Homo sapiens)', 'no');
